compound: CC(C)(C)OC(=O)C[C@H](NC(=O)CNC(=O)c1csc(NC(=O)NCc2ccccc2)n1)C(=O)NCc1ccccn1
melting point: 108 °C

compound: CSc1sc(-c2ccncc2)c2c1C(=O)CCC2
melting point: 115 to 116 °C

compound: O=C(Oc1ccc(Cl)cc1)c1ncn2c1[C@@H]1CCCN1C(=O)c1c(Cl)cccc1-2
melting point: 241 to 242 °C

compound: CN=C(ON1C(=O)c2ccccc2C1=O)c1ccccc1
melting point: 174 to 176 °C

compound: O=c1cc(-c2ccccc2)oc2cccc(F)c12
melting point: 144 to 145 °C

compound: CC(=O)OC1(Cc2ccncc2)C(=O)N(N2CCCCC2)c2ccccc21 (centres undefined)
melting point: 139 to 140 °C

compound: C[C@H](N)Cn1ncc2ccc3oc(C(=O)NCC4(O)CC4)cc3c21
melting point: 77 to 79 °C

compound: CCCc1ccc(NC(=O)c2cccnc2NCc2ccncc2)cc1C(F)(F)F
melting point: 147 to 149 °C

compound: CC(C)(C)OC(=O)NCC1CCn2c(cc3ccccc32)C1 (centres undefined)
melting point: 80 to 85 °C

compound: CCOc1ccc(C(C)=O)cc1S(N)(=O)=O
melting point: 148 to 151 °C

compound: Cc1noc(C)c1S(=O)(=O)n1c(CCCC(=O)O)cc2cc(Cl)ccc21
melting point: 150 to 154 °C

compound: Cc1nc(Nc2ccc(F)c(Cl)c2)c2nc(N3CCC(N)CC3)ncc2n1
melting point: 156 to 163 °C

compound: CNCC1Cc2cc(Cl)cc(-c3ccccc3OC)c2O1 (centres undefined)
melting point: 100 to 102 °C

compound: CN1C(=O)C(c2c[nH]c3ccc(F)cc23)=C(c2c[nH]c3ccc(F)cc23)C1=O
melting point: > 290 °C
